B1: library; numbered along this chain (parent)
chain: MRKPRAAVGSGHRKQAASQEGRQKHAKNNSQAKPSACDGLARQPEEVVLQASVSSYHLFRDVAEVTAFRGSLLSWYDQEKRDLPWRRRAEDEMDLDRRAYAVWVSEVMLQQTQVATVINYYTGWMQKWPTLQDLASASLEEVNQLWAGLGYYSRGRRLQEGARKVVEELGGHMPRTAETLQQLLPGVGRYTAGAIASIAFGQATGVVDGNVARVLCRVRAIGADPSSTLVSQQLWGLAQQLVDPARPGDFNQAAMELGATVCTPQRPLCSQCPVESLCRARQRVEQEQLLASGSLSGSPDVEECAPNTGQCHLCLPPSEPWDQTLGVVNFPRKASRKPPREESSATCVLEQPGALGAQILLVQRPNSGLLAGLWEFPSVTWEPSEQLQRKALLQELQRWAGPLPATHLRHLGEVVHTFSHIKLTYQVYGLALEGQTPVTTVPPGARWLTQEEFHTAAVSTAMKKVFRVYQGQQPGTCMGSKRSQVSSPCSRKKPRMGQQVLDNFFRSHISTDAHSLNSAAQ

# Variants of: B1
# assay.overview: 8OG:A repair function score (normalized; synonymous = 0, nonsense = -1) (normalized log-likelihood score); higher = more repair activity (WT-like);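 further: cells sorted at 72 h after reporter transfection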
# applied.conditions: with 8OG:A DNA repair reporter (GFP) in HEK-293 MUTYH KO cells
Category scheme (8OG:A repair function score): one = under -0.4, two = from -0.4 up to -0.03, three = -0.03 and over

As a guide, the following entries are already answered.
q: // bin(item) where item = A354Q
a: two

q: Which class does C477Q fall in?
a: three

q: Lab note: sort W321R into the matching 8OG:A repair function score band.
a: two

New cases:
q: For this variant, which bin applies? W374E
a: one

q: Kindly identify the class of T308R .
a: three
